target: Heat shock protein HSP90 (Homo sapiens, UniProt P07900+P08238); conditions: dose 100.0 nM
Description: Inhibition of Hsp90 (unknown origin) at 100 nM by TR-FRET assay relative to control
Metric: inhibition (%)
Numeric answer only, unit % assumed.

Below: 3 molecules and their reported inhibition.
• Cc1cccc(NC(=O)Nc2ccc(-c3nc(N4CCOCC4)c4c5c(sc4n3)CN(C(=O)c3cc(C(C)C)c(O)cc3O)CC5)cc2)c1 = 64.6
• CC(C)c1cc(C(=O)N2CCc3c(sc4nc(N5CCOCC5)nc(N5CCCC5)c34)C2)c(O)cc1O = 53
• CC(C)c1cc(C(=O)N2CCc3c(sc4nc(NC5CCOCC5)nc(N5CCOCC5)c34)C2)c(O)cc1O = 58

--- query ---
In: Answer briefly: inhibition recorded on Heat shock protein HSP90 (Homo sapiens, UniProt P07900+P08238) for "CC(C)c1cc(C(=O)N2CCc3c(sc4nc(N5CCOC(F)(F)C5)nc(N5CCOCC5)c34)C2)c(O)cc1O"
Out: 53.8
